molecular target: T1, human MHC class II DR protein (DRA*0101/DRB1*0401), purified from PRIESS cells (human, UniProt P01903 26-254; P01911 30-266, limits assumed); experiment: SPR (BIAcore), MHCII on CM5 chip
T1 construct: mature; also called HLA-DR protein; MHCII
T1 MHC II alpha: not shown
T1 MHC II beta: not shown
Quantity kind: Kd (nM)
Give a bare numeral; the unit nM is implied.

IN: State its Kd for this binder: MS-GPC-8-6-19 Fab (Fab, V domains shown, Fab: VH-CH1 with FLAG tag and STREP tag II, VL-CL; VH residue 1 is Q in Fab) VH: QVQLKESGPALVKPTQTLTLTCTFSGFSLSTSGVGVGWIRQPPGKALEWLALIDWDDDKYYSTSLKTRLTISKDTSKNQVVLTMTNMDPVDTATYYCARSPRYRGAFDYWGQGTLVTVSS VL: DIVLTQPPSVSGAPGQRVTISCSGSESNIGSNYVAWYQQLPGTAPKLLIYDNNQRPSGVPDRFSGSKSGTSASLAITGLQSEDEADYYCQSYDYDHYVFGGGTKLTVLG
OUT: 9

IN: State its Kd for this binder: MS-GPC-8-6-13 Fab (Fab, V domains shown, Fab: VH-CH1 with FLAG tag and STREP tag II, VL-CL; VH residue 1 is Q in Fab; also called 305D3) VH: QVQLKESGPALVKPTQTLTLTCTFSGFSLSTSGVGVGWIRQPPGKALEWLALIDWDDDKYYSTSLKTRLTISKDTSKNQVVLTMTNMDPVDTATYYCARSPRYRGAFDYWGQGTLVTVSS VL: DIVLTQPPSVSGAPGQRVTISCSGSESNIGANYVTWYQQLPGTAPKLLIYDNNQRPSGVPDRFSGSKSGTSASLAITGLQSEDEADYYCQSYDYDHYVFGGGTKLTVLG
OUT: 3
